experiment-description: Drug uptake in BALB/c mouse plasma at 20 mg/kg, po measured after 0.75 hrs by LC-MS method
Type: ADME, organism-based
observable: concentration at 0.75 h (nM)

COc1cccc(/C=C/C(=O)c2cc(OC)c(OC)cc2O)c1 ... 12

----------
experiment-description: Drug uptake in BALB/c mouse plasma at 20 mg/kg, po as cyclodextrin/PEG400 formulation measured after 1 hr by LC-MS method
Assay type: ADME, organism-based
observable: concentration at 1 h (nM)

COc1cccc(/C=C/C(=O)c2cc(OC)c(OC)cc2O)c1 ... 18

----------
Reported inhibition at 10 µM is given for each of the following molecules.
assay-system: CYP1A2 (Homo sapiens, UniProt P05177)
Sequence (P05177 whole entry): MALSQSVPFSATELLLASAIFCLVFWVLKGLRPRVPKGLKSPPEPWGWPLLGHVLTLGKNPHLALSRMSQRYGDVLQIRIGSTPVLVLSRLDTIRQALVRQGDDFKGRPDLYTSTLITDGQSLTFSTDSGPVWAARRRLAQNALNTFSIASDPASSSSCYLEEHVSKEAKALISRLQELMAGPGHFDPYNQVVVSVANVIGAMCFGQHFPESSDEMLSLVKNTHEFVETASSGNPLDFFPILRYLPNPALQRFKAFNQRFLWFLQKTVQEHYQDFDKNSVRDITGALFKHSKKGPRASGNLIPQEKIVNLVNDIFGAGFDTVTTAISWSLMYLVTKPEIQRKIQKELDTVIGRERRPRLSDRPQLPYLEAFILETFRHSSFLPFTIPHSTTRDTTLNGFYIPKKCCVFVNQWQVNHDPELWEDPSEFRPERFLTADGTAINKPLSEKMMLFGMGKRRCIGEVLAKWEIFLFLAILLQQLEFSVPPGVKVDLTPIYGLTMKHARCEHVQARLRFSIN
experiment-description: Inhibition of human CYP1A2 expressed in baculovirus-infected insect cells at 10 uM using Luciferin-1A2 as substrate in presence of NADPH by P450-Glo luminescence assay relative to control
Format: ADME
settings: probe Luciferin-1A2
observable: inhibition at 10 µM

COc1ccc(O)c(C(=O)/C=C/c2ccc(OC)c(OC)c2)c1 ... 60%
COc1ccc(/C=C/C(=O)c2cc(OC)ccc2O)cc1 ... 85.2%
COc1cccc(/C=C/C(=O)c2cc(OC)c(OC)cc2O)c1 ... 98%
COc1cccc(/C=C/C(=O)c2ccc(OC)cc2O)c1 ... 75.4%
COc1cccc(/C=C/C(=O)c2cc(OC)ccc2O)c1 ... 84.2%
COc1cccc(/C=C/C(=O)c2ccccc2O)c1 ... 85.6%

----------
Form field: logP (one value per entry).
experiment-description: Lipophilicity, log P of the compound
Type: physicochemical
settings: octanol/water
observable: logP

COc1ccc(/C=C/C(=O)c2ccc(OC)cc2O)cc1 ... 3.88
COc1ccc(C(=O)/C=C/c2c(OC)cccc2OC)c(O)c1 ... 3.51
C=CC(C)(C)c1cc(/C=C/C(=O)c2ccc(O)cc2)c(OC)cc1O [LICOAGROCHACONE A] ... 4.74
COc1ccc(/C=C/C(=O)c2cc(OC)ccc2O)cc1 ... 3.87
COc1ccc(O)c(C(=O)/C=C/c2cc(OC)c(OC)c(OC)c2)c1 ... 3.47
COc1cc(O)c(C(=O)/C=C/c2ccccc2)c(OC)c1 [FLAVOKAWAIN B] ... 3.9
COc1ccc(O)c(C(=O)/C=C/c2ccc(OC)c(OC)c2)c1 ... 3.52
COc1cc(O)c(C(=O)/C=C/c2cc(OC)c(OC)c(OC)c2)cc1OC ... 3.5
COc1ccc(C(=O)/C=C/c2cc(OC)c(OC)c(OC)c2)c(O)c1 ... 3.49
COc1cccc(/C=C/C(=O)c2cc(OC)c(OC)cc2O)c1 ... 3.59
COc1cccc(/C=C/C(=O)c2ccccc2O)c1 ... 3.94
COc1ccc(C(=O)/C=C/c2ccc(OC)c(OC)c2)c(O)c1 ... 3.53
COc1cccc(/C=C/C(=O)c2ccc(OC)cc2O)c1 ... 3.86
COc1ccc(O)c(C(=O)/C=C/c2c(OC)cccc2OC)c1 ... 3.52
COc1cccc(/C=C/C(=O)c2cc(OC)ccc2O)c1 ... 3.87

----------
assay-system: UniProt P11712
Sequence (P11712 whole entry): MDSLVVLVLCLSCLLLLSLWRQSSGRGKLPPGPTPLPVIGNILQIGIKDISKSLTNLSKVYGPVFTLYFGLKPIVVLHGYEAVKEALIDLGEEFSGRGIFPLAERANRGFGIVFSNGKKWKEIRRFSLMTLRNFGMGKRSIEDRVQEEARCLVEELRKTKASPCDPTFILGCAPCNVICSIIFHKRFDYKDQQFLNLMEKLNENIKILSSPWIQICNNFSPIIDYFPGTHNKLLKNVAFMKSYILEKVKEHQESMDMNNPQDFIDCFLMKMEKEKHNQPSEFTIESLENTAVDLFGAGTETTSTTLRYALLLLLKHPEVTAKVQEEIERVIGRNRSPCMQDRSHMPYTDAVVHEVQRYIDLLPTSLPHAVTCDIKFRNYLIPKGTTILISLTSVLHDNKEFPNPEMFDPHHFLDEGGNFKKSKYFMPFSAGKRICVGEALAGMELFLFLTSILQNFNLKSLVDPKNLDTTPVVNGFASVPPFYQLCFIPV
observable: IC50 (µM)

COc1cccc(/C=C/C(=O)c2cc(OC)c(OC)cc2O)c1 ... 42.1
